biological target: ligand binding domain of human FXR (Homo sapiens (Human)); assay: FXR ligand binding assay (LanthaScreen FRET); details: FXR ligand binding assay, -log EC50;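 further: TR-FRET coactivator recruitment: ligand-induced binding of fluorescein-labelled SRC2-2 peptide to GST-tagged FXR LBD detected via Tb anti-GST antibody, serial compound dilutions, 3-parameter logistic fit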
Class Condition met: FXR pEC50 at least 7. Class Condition not met: FXR pEC50 below 7.

Prompt: Quick check, FXR pEC50 >= 7? CCCCCS(=O)(=O)NC(=O)c1ccc(N2[C@@H]3CC[C@H]2C[C@@H](OC(=O)c2c(-c4c(Cl)cccc4Cl)noc2C2CC2)C3)cc1
Completion: Condition met

Prompt: Please tell me: is the molecule O=C(O)c1ccc(N2[C@@H]3CC[C@H]2C[C@@H](OC(=O)c2c(-c4c(Cl)cccc4Cl)noc2C2CC2)C3)c(Cl)c1 at or over 7 in terms of FXR pEC50?
Completion: Condition met

Prompt: Reported FXR pEC50 reaches at least 7 for CC1(c2onc(-c3c(Cl)cccc3Cl)c2C(=O)OC2C[C@H]3CC[C@@H](C2)N3c2nc3c(F)cc(C(=O)O)cc3s2)CC1 (single isomer, unassigned) ?
Completion: Condition met

Prompt: Does O=C(O)c1cc(F)c2nc(N3[C@@H]4CC[C@H]3C[C@@H](OC(=O)c3c(-c5ccccc5)noc3C3CC3)C4)sc2c1 have a reported FXR pEC50 of at least 7?
Completion: Condition not met

###

molecular target: human Farnesoid X receptor ligand-binding domain/Gal4 DNA binding domain chimera (Homo sapiens (Human), UniProt Q96RI1); experiment: Cell-based FXR beta-lactamase reporter assay (FXR-UAS-bla HEK 293T cells); settings: HEK-293T; read-out: % Efficacy
Sequence (Q96RI1 262-486, change not shown): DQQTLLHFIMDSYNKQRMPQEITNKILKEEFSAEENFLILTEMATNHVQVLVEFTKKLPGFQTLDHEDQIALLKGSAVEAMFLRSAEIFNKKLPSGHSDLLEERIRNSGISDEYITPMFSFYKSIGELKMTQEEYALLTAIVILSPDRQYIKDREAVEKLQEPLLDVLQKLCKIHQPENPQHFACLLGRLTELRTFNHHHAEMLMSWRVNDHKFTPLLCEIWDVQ
Would you kindly list Emax for each of these molecules?
Report as: number unit

Prompt: Quick one: Emax of COc1cc(C(=O)O)cc2sc(N3[C@@H]4CC[C@H]3C[C@@H](OC(=O)c3c(C56CCC(CC5)CC6)noc3C3CC3)C4)nc12 ?
Completion: 44%

Prompt: Given the entry COc1cc2nc(N3[C@@H]4CC[C@H]3C[C@@H](OC(=O)c3c(C56CCC(CC5)CC6)noc3C3CC3)C4)sc2cc1C(=O)O , report its measured Emax.
Completion: 44%

Prompt: Value lookup for Emax; key = O=C(O)c1cc(C(F)(F)F)c2nc(N3[C@@H]4CC[C@H]3C[C@@H](OC(=O)c3c(-c5c(Cl)cccc5Cl)noc3C3CC3)C4)sc2c1
Completion: 104%

Prompt: Emax for COc1cc(C(=O)O)ccc1N1[C@@H]2CC[C@H]1C[C@@H](OC(=O)c1c(-c3c(Cl)cccc3Cl)noc1C1CC1)C2 ?
Completion: 117%

Prompt: Tell me the measured Emax of O=C(O)c1ccc(N2[C@@H]3CC[C@H]2C[C@@H](OC(=O)c2c(-c4c(Cl)cccc4Cl)noc2C2CC2)C3)cc1F , please.
Completion: 117%

Prompt: Reported Emax, molecule O=C(O)c1ncc(N2[C@@H]3CC[C@H]2C[C@@H](OC(=O)c2c(-c4c(Cl)cccc4Cl)noc2C2CC2)C3)cn1 : ____
Completion: 115%

###

target: human Farnesoid X receptor ligand-binding domain/Gal4 DNA binding domain chimera (Homo sapiens (Human)); experiment: Cell-based FXR beta-lactamase reporter assay (FXR-UAS-bla HEK 293T cells); conditions: cellular FXR beta-lactamase reporter assay, extent of activation relative to GW4064
Please go through the items and note down their % Efficacy.
Write down the numeric answer in % and omit the unit.

Prompt: Item under review: O=C(O)c1cc(F)c2nc(N3[C@@H]4CC[C@H]3C[C@@H](OC(=O)c3c(C5CCC6(CC5)CC6)noc3C3CC3)C4)sc2c1 [Compound I-19] . Reported % Efficacy?
Completion: 79

Prompt: Look at this molecule and give its reported % Efficacy. CC(C)S(=O)(=O)NC(=O)c1ccc(N2[C@@H]3CC[C@H]2C[C@@H](OC(=O)c2c(-c4c(Cl)cccc4Cl)noc2C2CC2)C3)cc1 [Compound I-47]
Completion: 124

Prompt: Entry under review: O=C(Cc1c(-c2c(Cl)cccc2Cl)noc1C1CC1)O[C@H]1C[C@H]2CC[C@@H](C1)N2c1nc2c(F)cc(C(=O)O)cc2s1 [Compound I-32] . Reported % Efficacy?
Completion: 86

Prompt: Which % Efficacy is listed for O=C(O)c1cc(F)c2nc(N3[C@@H]4CC[C@H]3C[C@@H](OC(=O)c3c(-c5c(Cl)cccc5OC(F)F)noc3C3CC3)C4)sc2c1 [Compound I-15] ?
Completion: 108

Prompt: Please look up its % Efficacy: O=C(O)c1cc(F)c2nc(N3[C@@H]4CC[C@H]3C[C@@H](OC(=O)c3c(C56CCC(CC5)CC6)noc3C3CC3)C4)sc2c1 [Compound I-20]
Completion: 22

Prompt: Any idea what its % Efficacy is? The molecule is Cn1c(N2[C@@H]3CC[C@H]2C[C@@H](OC(=O)c2c(-c4c(Cl)cccc4Cl)noc2C2CC2)C3)nc2c(F)cc(C(=O)O)cc21 [Compound I-31]
Completion: 100
